- System: NCI-H23
- TEST DETAILS: NCI tumour cell line growth inhibition, 48 h
Calls of active or inactive are those of the source. No stated cut-off is given here; in the data, active = GI50 up to about 1.1 µM and inactive = higher.
Reply using exactly one outcome from true (1) for active, false (0) for inactive

Example entries and their recorded answers appear below.
O=[N+]([O-])c1cccc2nc3ccccc3c(NCCCn3ccnc3[N+](=O)[O-])c12; true (1)
Cc1cc(C)nc(NS(=O)(=O)c2ccc(Nc3nncc(=O)n3N)cc2)n1; false (0)
Cc1cc(CC(O)(C(F)(F)F)C(F)(F)F)cc(CC(O)(C(F)(F)F)C(F)(F)F)n1; false (0)

Continue with the next compound.
Each compound tested received a call. Report the one for C=C(C(=O)OC1C(CO)OC(OCC2CC[C@@H]3C[C@]4(OC(=O)C3=C)C(C)=CC(=O)C24)C(O)C1O)[C@@H]1CCC(CO)C2C(=O)C=C(C)[C@@]2(O)C1 (some centres undefined) .
false (0)

---

Collected GI50 values appear next to each entry.
- Test system: NCI-H226
- TEST DETAILS: NCI tumour cell line growth inhibition, 48 h
Activity calls are given as the source filed them. Rule as the data show it: active = GI50 up to about 1.1 µM and inactive = higher.

See these solved cases before continuing.
C=C(CCCCC)CN1CCCC1[C@@](C)(O)CC(=O)OCC (stereo not given in full); > 100 µM (inactive)
COc1ccc(N2C(=O)C3c4[nH]c5ccc(Br)cc5c4C4CCC(C(C)(C)C)CC4C3C2=O)cc1 (stereo not given); > 100 µM (inactive)
Nn1c(CCCCCCCCc2nnc(COc3ccc(Cl)cc3Cl)n2N)nnc1COc1ccc(Cl)cc1Cl; 63.5 µM (inactive)
Clc1ccc(OCc2nnc3n2N=C(c2ccc(Br)cc2)CS3)cc1; 53.1 µM (inactive)

Fill blank: measured GI50 of the compound COc1ccc(C2S/C(=C\c3ccc(OC)cc3OC)C(=O)N2NC(=O)Cc2ccccc2)cc1 (stereo not given) is ____.
> 100 µM (inactive)

---

Collected GI50 values appear next to each entry.
- Tested on: DLD-1
- TEST DETAILS: NCI tumour cell line growth inhibition, 48 h
Calls of active or inactive are those of the source. No stated cut-off is given here; in the data, active = GI50 up to about 1.1 µM and inactive = higher.

See these solved cases before continuing.
C=CCO[C@H]1CC[C@@]2(C)C(CC[C@]3(C)C2CC=C2[C@@H]4[C@@H](C)C(C)CC[C@]4(C(=O)O)CCC23C)C1(C)C (some centres not stated); 17.3 µM (inactive)
CCCCNC(=O)CCN(C(=O)O)S(=O)(=O)c1ccc(NC(=O)c2ccccc2)cc1; > 100 µM (inactive)
COC(=O)CCC(NC(=S)N/N=C(\C)c1ccccn1)C(=O)OC (configuration not stated); 43 µM (inactive)
Cc1cc(N(CCC#N)CCC#N)ccc1/N=N/c1ccc(S(N)(=O)=O)cc1; > 100 µM (inactive)
CC(=O)N1[C@H](C(=O)O)CS[C@H]1c1ccncc1; > 100 µM (inactive)
O=C1c2c(c(-c3ccccc3)c(-c3ccccc3)c(-c3ccccc3)c2-c2ccccc2)C(=O)N1c1cccc(Br)c1; > 100 µM (inactive)
CCc1cccc(C(C)CC)c1/N=C(/NC(=O)c1ccccc1C(=O)N/C(=N/c1c(CC)cccc1C(C)CC)SC)SC (configuration not stated); 58.5 µM (inactive)
CN(C)CCSc1cccc(-c2cc(-c3cccc(SCCN(C)C)c3)nc(SCCN(C)C)n2)c1; 12.9 µM (inactive)
CCOc1ccc(/C(C=O)=C(\Cl)c2ccc(OC)c(OC)c2)cc1; > 100 µM (inactive)
COC1OC(COS(=O)(=O)c2ccc(C)cc2)C(O)C(OS(=O)(=O)c2ccc(C)cc2)C1OS(=O)(=O)c1ccc(C)cc1 (configuration not stated); > 100 µM (inactive)

Request - read-out GI50 | tested on DLD-1 | compound O=C(Nc1cc([N+](=O)[O-])cc([N+](=O)[O-])c1)OC1C2CCC1C1OC1C2 (configuration not stated)
> 50 µM (inactive)

Same again, this time with CC(=O)O[C@H]1CC[C@@]2(C)C(=CC[C@@H]3C2CC[C@]2(C)Nc4nc5ccccc5cc4CC32)C1 (some centres not stated)
3.72 µM (inactive)
